All figures here come from ChEMBL document CHEMBL3864161.

target: Calmodulin-domain protein kinase 1 (Toxoplasma gondii)
Sequence (Q9BJF5 whole entry): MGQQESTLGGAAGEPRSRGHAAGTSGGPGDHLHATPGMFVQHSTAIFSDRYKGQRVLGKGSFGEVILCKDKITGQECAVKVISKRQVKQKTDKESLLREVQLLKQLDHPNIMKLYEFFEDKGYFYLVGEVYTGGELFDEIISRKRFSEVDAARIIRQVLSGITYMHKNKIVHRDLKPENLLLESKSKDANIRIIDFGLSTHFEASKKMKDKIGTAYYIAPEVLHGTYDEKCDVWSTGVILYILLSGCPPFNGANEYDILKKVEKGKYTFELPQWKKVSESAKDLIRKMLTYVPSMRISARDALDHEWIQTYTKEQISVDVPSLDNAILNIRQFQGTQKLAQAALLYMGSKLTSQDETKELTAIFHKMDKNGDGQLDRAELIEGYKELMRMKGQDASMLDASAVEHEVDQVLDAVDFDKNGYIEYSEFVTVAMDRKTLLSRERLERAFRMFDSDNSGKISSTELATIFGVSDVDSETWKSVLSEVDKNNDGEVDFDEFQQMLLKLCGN
pIC50: −log10 of the molar value.
Rule: pIC50 of 8 or more gives MET; anything lower gives NOT MET.

INSERT INTO results (molecule, discrete_label) VALUES
  ('CC(C)(C)n1nc(-c2ccc3nc(OC4CC4)ccc3c2)c(C(N)=O)c1N', 'MET'),
  ('CCOc1ccc2cc(-c3nn(C(C)C(C)(C)CO)c(N)c3C(N)=O)cnc2c1 (stereo not drawn)', 'NOT MET'),
  ('CCOc1ccc2cc(-c3nn(C(C)C(C)C)c(N)c3C(N)=O)cnc2c1 (stereo not drawn)', 'NOT MET');

---

Quick record: IC50, Proto-oncogene tyrosine-protein kinase Src (Homo sapiens, UniProt P12931).
attribute_measured: IC50

INSERT INTO measurements (compound, measured_result) VALUES
  ('CCOc1ccc2cc(-c3nn(C4CCOC4)c(N)c3C(N)=O)cnc2c1 (configuration not stated)', '> 10 µM'),
  ('CCOc1ccc2cc(-c3nn(CC(C)(C)CO)c(N)c3C(N)=O)cnc2c1', '> 10 µM');

---

Measured IC50 (Calmodulin-domain protein kinase 1 (Toxoplasma gondii, UniProt Q9BJF5))
attribute_measured: IC50

INSERT INTO results (molecule, attribute_measured, measured_result) VALUES
  ('CCOc1ccc2cc(-c3nn(C4CCCCC4)c(N)c3C(N)=O)ccc2n1', 'IC50', '6 nM'),
  ('CC(C)n1nc(-c2ccc3nc(OC4CCC4)ccc3c2)c(C(N)=O)c1N', 'IC50', '8 nM'),
  ('CCOc1ccc2cc(-c3nn(C(C)C)c(N)c3C(N)=O)ccc2n1', 'IC50', '7 nM'),
  ('CCOc1ccc2cc(-c3nn(C4CCOC4)c(N)c3C(N)=O)cnc2c1 (stereo not given)', 'IC50', '12 nM'),
  ('CCOc1ccc2cc(-c3nn(C(C)C4CC4)c(N)c3C(N)=O)cnc2c1 (stereo not given)', 'IC50', '14 nM');
